Quick list: pKd per entry.
experimentalSystem: equine FcRn (large alpha subunit p51) / equine beta-2-microglobulin complex, biotinylated (equine) (UniProt P30441)
experimentSummary: SPR (Biacore), pH 6
Please express pKd as -log10 of the molar concentration.

binder: equine IgG1 N434I (antibody, part only; not given: variable domains, not shown: another chain or arm of the molecule) constant: ASTTAPKVFALAPGCGTTSDSTVALGCLVSGYFPEPVKVSWNSGSLTSGVHTFPSVLQSSGFYSLSSMVTVPASTWTSETYICNVVHAASNFKVDKRIEPIPDNHQKVCDMSKCPKCPAPELLGGPSVFIFPPNPKDTLMITRTPEVTCVVVDVSQENPDVKFNWYMDGVEVRTATTRPKEEQFNSTYRVVSVLRIQHQDWLSGKEFKCKVNNQALPQPIERTITKTKGRSQEPQVYVLAPHPDELSKSKVSVTCLVKDFYPPEINIEWQSNGQPELETKYSTTQAQQDSDGSYFLYSKLSVDRNRWQQGTTFTCGVMHEALHIHYTQKNVSKNPGK
pKd: 7.35

Note: attention shifts to another entry.
Problem: If you can, please state the reported pKd value of equine IgG1 D312F (antibody, part only; not given: Variable domains, not shown: another chain or arm of the molecule) constant: ASTTAPKVFALAPGCGTTSDSTVALGCLVSGYFPEPVKVSWNSGSLTSGVHTFPSVLQSSGFYSLSSMVTVPASTWTSETYICNVVHAASNFKVDKRIEPIPDNHQKVCDMSKCPKCPAPELLGGPSVFIFPPNPKDTLMITRTPEVTCVVVDVSQENPDVKFNWYMDGVEVRTATTRPKEEQFNSTYRVVSVLRIQHQFWLSGKEFKCKVNNQALPQPIERTITKTKGRSQEPQVYVLAPHPDELSKSKVSVTCLVKDFYPPEINIEWQSNGQPELETKYSTTQAQQDSDGSYFLYSKLSVDRNRWQQGTTFTCGVMHEALHNHYTQKNVSKNPGK .
Solution: 7.75
